Target: hM1 (Homo sapiens, UniProt P11229)
Construct: expressed in transfected cells; host or cells: CHO
Sequence (P11229 whole entry): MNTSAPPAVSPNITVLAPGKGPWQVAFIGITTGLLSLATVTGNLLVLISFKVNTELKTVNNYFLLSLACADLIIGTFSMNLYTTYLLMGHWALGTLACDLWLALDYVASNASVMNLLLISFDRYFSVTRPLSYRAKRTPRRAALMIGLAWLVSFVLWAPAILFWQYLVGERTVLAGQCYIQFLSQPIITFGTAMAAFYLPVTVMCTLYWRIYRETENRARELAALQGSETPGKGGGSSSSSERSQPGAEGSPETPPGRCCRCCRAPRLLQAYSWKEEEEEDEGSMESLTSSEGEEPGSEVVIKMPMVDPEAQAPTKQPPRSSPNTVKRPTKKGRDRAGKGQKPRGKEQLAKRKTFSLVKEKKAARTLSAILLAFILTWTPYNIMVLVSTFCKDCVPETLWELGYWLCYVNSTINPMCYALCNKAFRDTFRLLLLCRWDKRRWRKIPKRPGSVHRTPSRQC
Test: FLIPR intracellular calcium assay for modulator activity at the muscarinic M1 receptor in CHO human M1 cells
Format: cell-based
Conditions: CHO human M1, with EC20 of acetylcholine, FLIPR; read-out: IC50 value hM1 (converted)
measured_quantity: IC50 (nM)
Give bare numbers, in nM.

>>> recorded_number("CCCC1=NCC(=S)Nc2ccc(Cl)cc21")
1280
>>> recorded_number("CC(C)[C@@H]1N=C(C2CCCCC2)c2cc(Cl)ccc2NC1=S")
414
>>> recorded_number("CC(C)[C@@H]1N=C(c2ccc(F)cc2)c2cc(OC(F)(F)F)ccc2NC1=S")
312

For the compound CC(=O)OC1C=C(c2ccccc2F)c2cc(Cl)ccc2NC1=S (stereo not shown) , what IC50 is on record?
649
